B1: RHOBTB3 (parent)
chain: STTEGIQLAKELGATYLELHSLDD

Variants of: B1
Test: protein stability index of a GFP-peptide fusion (GPS, HEK-293T) (PSI 1-6); higher = more stable;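 note: lentivirally expressed fusions sorted by FACS into six bins by GFP to DsRed ratio, PSI derived from sequencing read proportions per bin multiplied by bin number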
Settings: c terminus: a fixed tail appended
Where protein stability index equals or exceeds 4, the correct label is condition met; where it does not, the label is condition not met.

Request: In plain terms: is recorded protein stability index at least 4 for "Y16G" ?
Response: condition met

Request: Is it the case that "K10G" has protein stability index reaching or exceeding 4?
Response: condition not met

Request: Please indicate if the recorded protein stability index for "E11T" meets or exceeds 4.
Response: condition not met

Request: # bool: protein stability index of "L12M" >= 4
Response: condition met

Request: Dear colleague, could you confirm whether "G5S" has protein stability index at or above 4?
Response: condition not met

Request: Evaluate "E18A" : protein stability index at minimum 4?
Response: condition not met

Request: Is the recorded value of protein stability index equal to or greater than 4 for this variant? "Q7D"
Response: condition met

Request: Tell me whether protein stability index is at least 4 here: "G13M"
Response: condition not met

Request: Does "E11Y" have a reported protein stability index of at least 4?
Response: condition not met

Request: Quick check: does "A9F" have protein stability index greater than or equal to 4?
Response: condition not met

Request: Say whether "D24A" shows protein stability index of 4 or more.
Response: condition not met

Request: Decide: is the reported value of protein stability index for "L22G" equal to or greater than 4?
Response: condition not met

Request: Has "K10S" a recorded protein stability index greater than or equal to 4?
Response: condition not met

Request: In plain terms: is recorded protein stability index at least 4 for "L19V" ?
Response: condition met

Request: Entry "E11C" : is its protein stability index no less than 4?
Response: condition not met

Request: // inclusive: protein stability index at least 4? input: "L19T"
Response: condition met

Request: Could you tell me if the measured protein stability index of "T15C" reaches 4 or more?
Response: condition not met

Request: Confirm if protein stability index reported for the variant "S1N" is 4 or above.
Response: condition not met

Request: Does "Q7W" have a reported protein stability index of at least 4?
Response: condition not met

Request: Check this variant for protein stability index at or above 4: "T2R"
Response: condition not met

Request: Say whether "L8P" shows protein stability index of 4 or more.
Response: condition met

Request: Kindly determine if protein stability index recorded for "Y16E" is above or exactly 4.
Response: condition met

Request: protein stability index >= 4 for "D23I" ?
Response: condition not met

Request: Quick check: does "K10H" have protein stability index greater than or equal to 4?
Response: condition not met

Request: # bool: protein stability index of "A14M" >= 4
Response: condition not met

Request: Check this variant for protein stability index at or above 4: "L8N"
Response: condition met

Request: Could you tell me if the measured protein stability index of "Y16Q" reaches 4 or more?
Response: condition met

Request: protein stability index >= 4 for "L17G" ?
Response: condition met

Request: Check the entry "Q7T" : does protein stability index equal or exceed 4?
Response: condition not met

Request: Entry "L22N" : is its protein stability index no less than 4?
Response: condition met

Request: Does the reported protein stability index for "T15F" fall at or above the 4 mark?
Response: condition not met

Request: Identify whether the reported protein stability index of the following variant is 4 or greater: "A9T"
Response: condition met

Request: Has "L22A" a recorded protein stability index greater than or equal to 4?
Response: condition met

Request: Say whether "S1I" shows protein stability index of 4 or more.
Response: condition not met

Request: Has "T3I" a recorded protein stability index greater than or equal to 4?
Response: condition not met

Request: Check this variant for protein stability index at or above 4: "E18D"
Response: condition met

Request: Is protein stability index for "S1W" at or above 4?
Response: condition not met

Request: I'd appreciate it if you could say whether "L19I" has protein stability index at least equal to 4.
Response: condition not met

Request: Is protein stability index at least 4? Consider "K10F"
Response: condition not met

Request: Determine whether this variant has protein stability index no lower than 4: "L12K"
Response: condition met
